- MEASUREMENT TARGET: RIPK1 (human) (UniProt Q13546)
- Sequence (Q13546 whole entry, looked up): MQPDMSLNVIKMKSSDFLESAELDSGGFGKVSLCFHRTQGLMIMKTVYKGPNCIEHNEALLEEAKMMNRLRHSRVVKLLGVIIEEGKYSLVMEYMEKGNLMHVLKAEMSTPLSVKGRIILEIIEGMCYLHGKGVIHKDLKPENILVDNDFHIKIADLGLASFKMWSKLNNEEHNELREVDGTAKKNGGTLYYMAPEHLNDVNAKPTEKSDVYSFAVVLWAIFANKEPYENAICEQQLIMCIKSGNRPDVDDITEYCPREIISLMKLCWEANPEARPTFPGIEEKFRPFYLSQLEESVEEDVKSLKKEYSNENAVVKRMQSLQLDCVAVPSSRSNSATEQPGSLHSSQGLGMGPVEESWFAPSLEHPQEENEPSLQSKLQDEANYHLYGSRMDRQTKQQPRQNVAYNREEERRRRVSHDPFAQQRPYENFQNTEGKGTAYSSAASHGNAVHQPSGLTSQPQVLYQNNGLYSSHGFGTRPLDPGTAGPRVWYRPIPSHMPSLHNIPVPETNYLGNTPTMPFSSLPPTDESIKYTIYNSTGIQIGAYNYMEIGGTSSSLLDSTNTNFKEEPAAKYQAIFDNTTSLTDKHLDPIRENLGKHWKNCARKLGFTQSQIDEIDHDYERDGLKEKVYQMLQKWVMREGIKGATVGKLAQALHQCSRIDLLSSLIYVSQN
- ASSAY COMMENT: KINOMEscan competition binding
- SETTINGS: compound 10.0 µM
Please go through the items and note down their kinase still bound, per cent of control.

INPUT SMILES	kinase still bound, per cent of control
CCOc1cc2ncc(C#N)c(Nc3ccc(OCc4ccccn4)c(Cl)c3)c2cc1NC(=O)/C=C/CN(C)C	100%
Cc1cc([C@@H](C)Nc2ccccc2C(=O)O)c2nc(N3CCOCC3)cc(=O)n2c1	100%
O=C(NOC[C@H](O)CO)c1ccc(F)c(F)c1Nc1ccc(I)cc1F	85%
N#Cc1c(NC(=O)c2cccc3ccccc23)sc2c1CCCC2	87%
Cn1c(=O)n(-c2ccc(C(C)(C)C#N)cc2)c2c3cc(-c4cnc5ccccc5c4)ccc3ncc21	100%
C=CC(=O)Nc1cccc(Oc2nc(Nc3ccc(N4CCN(C)CC4)cc3OC)ncc2Cl)c1	9.4%
CCC(=O)N1CCN(c2ccc(-n3c(=O)ccc4cnc5ccc(-c6cnc7ccccc7c6)cc5c43)cc2C(F)(F)F)CC1	1.9%
CC[C@@H]1C(=O)N(C)c2cnc(Nc3ccc(C(=O)NC4CCN(C)CC4)cc3OC)nc2N1C1CCCC1	100%

Okay, now this compound:
**Query** Name the recorded kinase still bound, per cent of control for "C=CC(=O)Nc1cccc(Nc2nc(N[C@H]3CC[C@H](N(C)C)CC3)nc3c2ncn3C(C)C)c1" .
**Result** 100%

* * *

- MEASUREMENT TARGET: STK36 (human)
- ASSAY COMMENT: KINOMEscan competition binding
- SETTINGS: compound 10.0 µM
TEST READOUT: kinase still bound, per cent of control (%)
Numbers only, in %.

Here are 5 compounds. What values of kinase still bound, per cent of control were reported for them?
1. C[C@@H](Oc1cc(-n2cnc3ccc(CN4CCN(C)CC4)cc32)sc1C(N)=O)c1ccccc1C(F)(F)F
2. Cc1ccc(C(=O)Nc2cccc(C(F)(F)F)c2)cc1Nc1cncc(C(N)=O)c1
3. C=CC(=O)Nc1cccc(Nc2nc(N[C@H]3CC[C@H](N(C)C)CC3)nc3c2ncn3C(C)C)c1
4. Cc1cc([C@@H](C)Nc2ccccc2C(=O)O)c2nc(N3CCOCC3)cc(=O)n2c1
5. CCC(=O)N1CCN(c2ccc(-n3c(=O)ccc4cnc5ccc(-c6cnc7ccccc7c6)cc5c43)cc2C(F)(F)F)CC1

**Result**
1. 98
2. 100
3. 100
4. 100
5. 17

* * *

- MEASUREMENT TARGET: UniProt:Q8TDX7
- Sequence (Q8TDX7 whole entry, looked up): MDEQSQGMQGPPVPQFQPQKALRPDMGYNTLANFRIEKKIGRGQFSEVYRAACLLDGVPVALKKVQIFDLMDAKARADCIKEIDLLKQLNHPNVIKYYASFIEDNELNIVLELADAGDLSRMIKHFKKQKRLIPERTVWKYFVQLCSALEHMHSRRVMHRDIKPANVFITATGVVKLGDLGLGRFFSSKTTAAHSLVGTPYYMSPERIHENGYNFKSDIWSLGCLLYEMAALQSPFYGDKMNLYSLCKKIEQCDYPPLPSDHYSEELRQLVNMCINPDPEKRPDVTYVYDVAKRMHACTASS
- ASSAY COMMENT: KINOMEscan competition binding
- SETTINGS: compound 10.0 µM
TEST READOUT: kinase still bound, per cent of control (%)
Numbers only, in %.

Some entries whose results are on file:
COMPOUND	kinase still bound, per cent of control / %
Nc1ccc(-c2ccc3ncc4ccc(=O)n(-c5cccc(C(F)(F)F)c5)c4c3c2)cn1	82
Cc1ccc2nc(NCCN)c3ncc(C)n3c2c1	100
CCN1CCN(Cc2ccc(Nc3ncc4c(n3)N(C)c3ccccc3C(=O)N4C)cc2C(F)(F)F)CC1	88
N#Cc1c(NC(=O)c2cccc3ccccc23)sc2c1CCCC2	84
CN(C)C/C=C/C(=O)Nc1cccc(Nc2ncc3c(n2)N(C)c2ccccc2C(=O)N3C)c1	100

List reported kinase still bound, per cent of control for each of these compounds:
1. CCC(=O)N1CCN(c2ccc(-n3c(=O)ccc4cnc5ccc(-c6cnc7ccccc7c6)cc5c43)cc2C(F)(F)F)CC1
2. C=CC(=O)Nc1cccc(Oc2nc(Nc3ccc(N4CCN(C)CC4)cc3OC)ncc2Cl)c1
3. O=C1Nc2ccc(I)cc2/C1=C/c1cc(Br)c(O)c(Br)c1
4. COc1cc(C(=O)NC2CCN(C)CC2)ccc1Nc1ncc2c(n1)N(C1CCCC1)C(C)CC(=O)N2C (centres undefined)
5. Cc1ccc(C(=O)Nc2cccc(C(F)(F)F)c2)cc1Nc1cncc(C(N)=O)c1
6. Cn1c(=O)n(-c2ccc(C(C)(C)C#N)cc2)c2c3cc(-c4cnc5ccccc5c4)ccc3ncc21
7. O=C(NC1CC1)c1cccc(-c2ccc3c(NC(=O)C4CC4)n[nH]c3c2)c1

**Result**
[90, 12, 100, 100, 100, 100, 100]

Consider the following items and state reported kinase still bound, per cent of control for each.
1. C=CC(=O)Nc1cc(NC(=O)c2ccc(C)c(NC(=O)c3ccno3)c2)cc(C(F)(F)F)c1
2. CCCS(=O)(=O)Nc1ccc(F)c(C(=O)c2c[nH]c3ncc(-c4ccc(Cl)cc4)cc23)c1F
3. O=C(NOC[C@H](O)CO)c1ccc(F)c(F)c1Nc1ccc(I)cc1F
4. OCCCNc1cc(-c2ccnc(Nc3cccc(Cl)c3)n2)ccn1

**Result**
1: 100; 2: 100; 3: 95; 4: 100

Hey, quick one: what's kinase still bound, per cent of control for each of these?
1. O=C(O)c1ccc(Nc2ncc3c(n2)-c2ccc(Cl)cc2C(c2c(F)cccc2F)=NC3)cc1
2. C=CC(=O)Nc1cccc(Nc2nc(N[C@H]3CC[C@H](N(C)C)CC3)nc3c2ncn3C(C)C)c1
3. Cc1cc([C@@H](C)Nc2ccccc2C(=O)O)c2nc(N3CCOCC3)cc(=O)n2c1

**Result**
1. 100
2. 76
3. 100
